Target: IRAK4 (Homo sapiens, UniProt Q9NWZ3)
Construct: endogenous in cells; host or cells: Karpas299
Experiment: IRAK4 Degradation Assay (Karpas299, HTRF/TR-FRET)
Type: cell-based
Conditions: Karpas-299 cells, 24 h treatment; maximum percentage of degradation; read-out: IRAK4 in Karpas-299 (24 h) Dmax (%)
Recorded Dmax for the following compounds
Numeric only. Scale: %

I have this compound here, CC(C)(O)c1cc2nn([C@H]3CC[C@H](N4CCN(C5CCN(c6cc(F)c(C7CCC(=O)NC7=O)c(F)c6)CC5)CC4)CC3)cc2cc1NC(=O)c1ccc2cc(C#N)cnn12 (some centres unmarked) , and I need its recorded Dmax.
99

----------
Biological target: IRAK4 (Homo sapiens)
Construct: endogenous in cells; host or cells: Karpas299
Sequence (Q9NWZ3 1-460): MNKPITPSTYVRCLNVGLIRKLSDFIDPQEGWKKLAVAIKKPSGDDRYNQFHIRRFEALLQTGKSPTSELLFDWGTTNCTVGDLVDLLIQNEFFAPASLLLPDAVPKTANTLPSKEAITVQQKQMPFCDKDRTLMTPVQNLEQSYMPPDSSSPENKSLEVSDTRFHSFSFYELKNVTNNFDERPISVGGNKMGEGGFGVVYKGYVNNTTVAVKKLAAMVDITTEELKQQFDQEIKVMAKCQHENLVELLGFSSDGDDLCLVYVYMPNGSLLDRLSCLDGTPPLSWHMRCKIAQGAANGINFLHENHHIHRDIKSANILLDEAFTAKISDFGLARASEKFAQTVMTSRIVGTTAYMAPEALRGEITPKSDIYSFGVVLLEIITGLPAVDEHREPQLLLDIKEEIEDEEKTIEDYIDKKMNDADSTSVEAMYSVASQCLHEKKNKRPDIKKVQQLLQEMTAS
Assay: IRAK4 Degradation Assay (Karpas299, HTRF/TR-FRET)
Assay type: cell-based
Conditions: Karpas-299 cells, 24 h treatment; read-out: IRAK4 in Karpas-299 (24 h) DC50
parameter: DC50 (nM)
Express it in nM; write the number only.

The examples below pair each entry with its known result.
>>> quantitativereadout("CC(C)(O)c1cc2nn([C@H]3C[C@H](N4CCN(C(=O)[C@@H]5CCN(c6cc(F)c([C@H]7CCC(=O)NC7=O)c(F)c6)C5)CC4)C3)cc2cc1NC(=O)c1ccc2cc(C#N)cnn12")
0.8
>>> quantitativereadout("CC(C)(O)c1cc2nn([C@H]3CC[C@H](N4CCN(C(=O)C5CCN(c6cc(F)c([C@H]7CCC(=O)NC7=O)c(F)c6)CC5)CC4)CC3)cc2cc1NC(=O)c1cccc(C(F)(F)F)n1")
0.6
>>> quantitativereadout("CC(C)(O)c1cc2nn([C@H]3CC[C@H](N4CCN(C[C@@H]5CCN(c6cc(F)c([C@H]7CCC(=O)NC7=O)c(F)c6)C5)CC4)CC3)cc2cc1NC(=O)c1ccc2cc(C#N)cnn12")
0.9

Now look at this entry.
# query: DC50 of entry O=C1CC[C@H](c2c(F)cc(N3CC(C(=O)N4CCN(c5ccc(-n6cc(NC(=O)c7coc(-c8ccnc(NCC(F)(F)F)c8)n7)c(C(F)F)n6)cn5)CC4)C3)cc2F)C(=O)N1
6.9

----------
Biological target: IRAK4 (Homo sapiens)
Construct: endogenous in cells; host or cells: Karpas299
Sequence (Q9NWZ3 1-460): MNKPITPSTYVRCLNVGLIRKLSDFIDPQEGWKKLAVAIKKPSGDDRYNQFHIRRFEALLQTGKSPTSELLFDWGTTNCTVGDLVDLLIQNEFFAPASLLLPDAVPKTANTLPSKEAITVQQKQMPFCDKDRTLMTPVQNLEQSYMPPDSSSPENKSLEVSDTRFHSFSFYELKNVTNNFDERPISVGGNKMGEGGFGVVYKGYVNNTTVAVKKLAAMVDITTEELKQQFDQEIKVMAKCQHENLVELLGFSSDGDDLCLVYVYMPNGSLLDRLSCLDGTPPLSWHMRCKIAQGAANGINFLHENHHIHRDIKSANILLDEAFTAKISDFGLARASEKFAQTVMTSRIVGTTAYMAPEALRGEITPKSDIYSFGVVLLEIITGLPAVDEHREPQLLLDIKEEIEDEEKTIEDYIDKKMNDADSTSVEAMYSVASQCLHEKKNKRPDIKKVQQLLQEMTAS
Assay: IRAK4 Degradation Assay (Karpas299, HTRF/TR-FRET)
Assay type: cell-based
Conditions: Karpas-299 cells, 5 h treatment; maximum percentage of degradation; read-out: IRAK4 in Karpas-299 (5 h) Dmax (%)
parameter: Dmax
Don't forget the unit after the value.

Reference set (2 entries):
>>> result("COC[C@@H]1CN([C@H]2CC[C@H](n3cc4cc(NC(=O)c5ccc6cc(C#N)cnn56)c(C(C)(C)O)cc4n3)CC2)CCN1CC1CN(c2cc(F)c([C@H]3CCC(=O)NC3=O)c(F)c2)C1 [Example 358]")
"95%"
>>> result("CC(C)(O)c1cc2nn([C@H]3CC[C@H](N4CCN(C(=O)C5CN(c6cc(F)c(N7CCC(=O)NC7=O)c(F)c6)C5)CC4)CC3)cc2cc1NC(=O)c1ccc2cc(C#N)cnn12 [Example 105]")
"97%"

Would you kindly share the measured Dmax for CC(C)(O)c1cc2nn([C@H]3CC[C@H](N4CCN(C(=O)C5CN(c6ccc(C7CCC(=O)NC7=O)nc6)C5)CC4)CC3)cc2cc1NC(=O)c1ccc2cc(C#N)cnn12 (stereo partly drawn) [Example 255] ?
96%

----------
Molecular target: IRAK4 (Homo sapiens)
Construct: endogenous in cells; host or cells: Karpas299
Test: IRAK4 Degradation Assay (Karpas299, HTRF/TR-FRET)
Format: cell-based
Conditions: Karpas-299 cells, 24 h treatment; read-out: IRAK4 in Karpas-299 (24 h) DC50
# strict inequality: DC50 < 0.8 nM yields TRUE, everything else yields FALSE

Consider the worked cases shown below.
>>> class("CC(C)(O)c1cc2nn(C3CCN([C@H]4CCN(C(=O)C5CN(c6cc(F)c([C@H]7CCC(=O)NC7=O)c(F)c6)C5)CC4(F)F)CC3)cc2cc1NC(=O)c1ccc2cc(C#N)cnn12")
"FALSE"
>>> class("CC(C)(O)c1cc2nn(C34CC(N5CCN(CC6CN(c7cc(F)c([C@H]8CCC(=O)NC8=O)c(F)c7)C6)CC5)(C3)C4)cc2cc1NC(=O)c1ccc2cc(C#N)cnn12")
"TRUE"
>>> class("O=C1CC[C@H](c2c(F)cc(N3CC[C@@H](C(=O)N4CCN([C@H]5CC[C@H](n6cc(NC(=O)c7cnn(-c8ccnc(NCC(F)(F)F)c8)n7)c(C(F)F)n6)CC5)CC4)C3)cc2F)C(=O)N1")
"FALSE"
>>> class("COC[C@H]1CN(C2CCN(c3ccc(C4CCC(=O)NC4=O)nc3C)CC2)CCN1[C@H]1CC[C@H](n2cc3cc(NC(=O)c4ccc5cc(C#N)cnn45)c(C(C)(C)O)cc3n2)CC1 (stereo partly shown)")
"FALSE"
>>> class("CC(C)(O)c1cc2nn(C3CCN([C@H]4CCN(CC5CN(c6cc(F)c([C@H]7CCC(=O)NC7=O)c(F)c6)C5)CC4(F)F)CC3)cc2cc1NC(=O)c1ccc2cc(C#N)cnn12")
"FALSE"
>>> class("CC(C)(O)c1cc2nn(C34CCC(N5CCN(C(=O)C6CN(c7cc(F)c([C@H]8CCC(=O)NC8=O)c(F)c7)C6)CC5)(CC3)CC4)cc2cc1NC(=O)c1ccc2cc(C#N)cnn12")
"TRUE"

# check: DC50 < 0.8 nM for C[C@H]1CN(CCc2cc(F)c([C@H]3CCC(=O)NC3=O)c(F)c2)CCN1[C@H]1CC[C@H](n2cc3cc(NC(=O)c4ccc5cc(C#N)cnn45)c(C(C)(C)O)cc3n2)CC1
FALSE

For this molecule, is DC50 lower than 0.8 nM? CC(C)(O)c1cc2nn([C@H]3CC[C@H](N4CCN(C(=O)C5CN(c6cc(F)c([C@H]7CCC(=O)NC7=O)c(F)c6)C5)CC4=O)CC3)cc2cc1NC(=O)c1ccc2cc(C#N)cnn12
TRUE

Hi there! Is DC50 for CC(C)(O)c1cc2nn([C@H]3CC[C@H](N4CCN(C(=O)C5CN(c6cc(F)c(N7CCC(=O)NC7=O)c(F)c6)C5)CC4)CC3)cc2cc1NC(=O)c1ccc2cc(C#N)cnn12 below 0.8 nM, do you know?
TRUE

----------
Each item that follows carries a reported Dmax.
Molecular target: IRAK4 (Homo sapiens)
Construct: endogenous in cells; host or cells: Karpas299
Assay: IRAK4 Degradation Assay with Human Serum (Karpas299, HTRF/TR-FRET)
Format: cell-based
Settings: Karpas-299 in human serum, 24 hrs treatment; read-out: IRAK4 degradtion with human serum assay Dmax (%)
Just the number plus its unit, please.

Completed entries (count: 3):
>>> result("COC[C@H]1CN([C@H]2CC[C@H](n3cc4cc(NC(=O)c5ccc6cc(C#N)cnn56)c(C(C)(C)O)cc4n3)CC2)CCN1CCc1cc(F)c([C@H]2CCC(=O)NC2=O)c(F)c1 [Example 314]")
"98%"
>>> result("COC[C@H]1CN([C@H]2CC[C@H](n3cc4cc(NC(=O)c5ccc6cc(C#N)cnn56)c(C(C)(C)O)cc4n3)CC2)CCN1C1CCN(c2ccc(C3CCC(=O)NC3=O)nc2C)CC1 (stereo partly shown) [Example 422]")
"97%"
>>> result("COC[C@H]1CN([C@H]2CC[C@H](n3cc4cc(NC(=O)c5ccc6cc(C#N)cnn56)c(C(C)(C)O)cc4n3)CC2)CCN1C(=O)[C@@H]1CCN(c2cc(F)c([C@H]3CCC(=O)NC3=O)c(F)c2)C1 [Example 313]")
"96%"

Dmax for CC(C)(O)c1cc2nn([C@H]3CC[C@H](N4CCN(CC5CCN(c6ccc7c(c6)CN(C6CCC(=O)NC6=O)C7=O)CC5)CC4)CC3)cc2cc1NC(=O)c1ccc2cc(C#N)cnn12 (stereo partly shown) [Example 353] ?
88%

Endpoint output: Dmax of CC(C)(O)c1cc2nn([C@H]3CC[C@H](N4CCN(C[C@H]5C[C@@H](c6cc(F)c([C@H]7CCC(=O)NC7=O)c(F)c6)C5)CC4)CC3)cc2cc1NC(=O)c1ccc2cc(C#N)cnn12 [Example 383] . Value?
93%

What does the record list as Dmax for COC[C@@H]1CN(C[C@@H]2CCN(c3cc(F)c([C@H]4CCC(=O)NC4=O)c(F)c3)C2)CCN1[C@H]1CC[C@H](n2cc3cc(NC(=O)c4ccc5cc(C#N)cnn45)c(C(C)(C)O)cc3n2)CC1 [Example 388] ?
98%

What does the record list as Dmax for CC(C)(O)c1cc2nn([C@H]3CC[C@H](N4CCN(C(=O)C5CN(c6cc(F)c([C@H]7CCC(=O)NC7=O)c(F)c6)C5)CC4=O)CC3)cc2cc1NC(=O)c1ccc2cc(C#N)cnn12 [Example 199] ?
95%

Please look up its Dmax: CC(C)(O)c1cc2nn([C@H]3C[C@H](N4CCN(C5CCN(c6cc(F)c([C@H]7CCC(=O)NC7=O)c(F)c6)CC5)CC4)C3)cc2cc1NC(=O)c1ccc2cc(C#N)cnn12 [Example 330]
98%

Which Dmax value belongs to CC(C)(O)c1cc2nn([C@H]3CC[C@H](N4CCN(C(=O)C5CN(c6cc(F)c([C@H]7CCC(=O)NC7=O)c(F)c6)C5)CC4)CC3)cc2cc1NC(=O)c1ccc2cc(C(F)(F)F)cnn12 [Example 207] ?
97%

What measured Dmax goes with CC(C)(O)c1cc2nn([C@H]3CC[C@H](N4CCN(C5CCN(c6cc(F)c(N7CCC(=O)NC7=O)c(F)c6)CC5)CC4)CC3)cc2cc1NC(=O)c1ccc2cc(C#N)cnn12 [Example 293] ?
96%

Consider the molecule shown here: CC(C)(O)c1cc2nn([C@H]3CC[C@H](N4CCN(C5CCN(c6cc(F)c([C@H]7CCC(=O)NC7=O)c(F)c6)CC5)C[C@@H]4CO)CC3)cc2cc1NC(=O)c1ccc2cc(C#N)cnn12 [Example 399] What is its recorded Dmax?
99%

Could you share which Dmax value was measured for COC[C@@H]1CN(CCc2cc(F)c([C@H]3CCC(=O)NC3=O)c(F)c2)CCN1[C@H]1CC[C@H](n2cc3cc(NC(=O)c4ccc5cc(C#N)cnn45)c(C(C)(C)O)cc3n2)CC1 [Example 325] ?
91%

Bench note: what Dmax did CC(C)(O)c1cc2nn([C@H]3CC[C@H](N4CCN(C(=O)C5CN(c6ccc(N7CCC(=O)NC7=O)cc6)C5)CC4)CC3)cc2cc1NC(=O)c1ccc2cc(C#N)cnn12 [Example 265] show?
99%

# Dmax lookup, item COc1cc2nn([C@H]3CC[C@H](N4CCN(C(=O)C5CN(c6cc(F)c([C@H]7CCC(=O)NC7=O)c(F)c6)C5)CC4)CC3)cc2cc1NC(=O)c1ccc2cc(C#N)cnn12 [Example 336]
92%

Report Dmax for CC(C)(O)c1cc2nn([C@H]3CC[C@H](N4CCN([C@@H]5CCN(c6ccc(N7CCC(=O)NC7=O)cc6)C5)CC4)CC3)cc2cc1NC(=O)c1ccc2cc(C#N)cnn12 [Example 294] please.
98%

Given the molecule Cc1cc(C2CCC(=O)NC2=O)c(F)cc1[C@H]1C[C@H](N2CCN([C@H]3CC[C@H](n4cc5cc(NC(=O)c6ccc7cc(C#N)cnn67)c(C(C)(C)O)cc5n4)CC3)CC2)C1 (stereo partly shown) [Example 297] , what is its reported Dmax?
99%

Any idea what Dmax was measured for CC(C)(O)c1cc2nn([C@H]3CC[C@H](N4C[C@@H]5CN(CCc6cc(F)c([C@H]7CCC(=O)NC7=O)c(F)c6)C[C@H]5C4)CC3)cc2cc1NC(=O)c1ccc2cc(C#N)cnn12 [Example 362] ?
97%

Fill blank: measured Dmax of the molecule Cc1nc(C2CCC(=O)NC2=O)ccc1N1CCC(N2CCC3(CCC(n4cc5cc(NC(=O)c6ccc7cc(C#N)cnn67)c(C(C)(C)O)cc5n4)CC3)CC2)CC1 (stereo not shown) [Example 427] is ____.
94%

Need Dmax, item COC[C@@H]1CN(C2CN(c3cc(F)c([C@H]4CCC(=O)NC4=O)c(F)c3)C2)CCN1[C@H]1CC[C@H](n2cc3cc(NC(=O)c4ccc5cc(C#N)cnn45)c(C(C)(C)O)cc3n2)CC1 [Example 327]
95%
